# protocol_description: Quantitative High-Throughput drug screen in 47 multiple myeloma cell lines against the NCATS MIPE library collection: NCIH929_DSMZ cell viability assay (AID 1918978); note: nearly all actives have a fitted effect of over 35% in size
# test_settings: NCI-H929 myeloma viability, CellTiter-Glo ATP, 48 h; series mostly up to 45.8 µM
# Source text: PI: Beverly A. Mock Ph.D. Laboratory of Cancer Biology and Genetics, Center for Cancer Research, National Cancer Institute, National Institute of Health, Bethesda, Maryland […] 5; Detector; 425V; Luminescence; Viewlux PerkinElmer. […] 1. […] Briefly, the corresponding myeloma cell lines were screened in 1,536-well plates with 500 cells, 5-uL per well for inhibition of cell viability (assessed by measuring ATP levels with CellTiterGlo). […]
Results filed as inconclusive are left out. Active and inactive are the calls of the source. Calls come from the whole dose curve; as a rule, active = well fitted cell-killing curve with a large enough effect; inconclusive = small, poorly fitted or top-dose-only effect; inactive = no such curve, though single readings can be large or run the other way.
Can you answer with just one of these options? 1 for active, 0 for inactive

Examples with answers:
smiles_record: CN1CCc2c(n(Cc3ccc(C(=O)NO)cc3)c3ccccc23)C1
group: 1
//
smiles_record: CCC[C@@H](NC(=O)[C@@H]1[C@H]2CCC[C@@H]2CN1C(=O)[C@@H](NC(=O)[C@@H](NC(=O)c1cnccn1)C1CCCCC1)C(C)(C)C)C(=O)C(=O)NC1CC1
group: 0
//
smiles_record: COc1c(C)cnc(Cn2cnc3c(Cl)nc(N)nc32)c1C
group: 1
//
smiles_record: CC(C)(C)c1[nH]cnc1C=c1[nH]c(=O)c(=Cc2ccccc2)[nH]c1=O
group: 1
//
smiles_record: CO[C@H]1O[C@@H]2O[C@@]3(C)CC[C@@H]4[C@@H](C)CC[C@@H]([C@H]1C)[C@@]24OO3
group: 1

Kindly provide the recorded test outcome for the following compound: Oc1ccc(C=Cc2cc(O)cc(O)c2)cc1
0

So what was the verdict on CN[C@H]1[C@@H](O[C@@H]2[C@H](O[C@@H]3[C@@H](O)[C@@H](O)[C@@H](N=C(N)N)[C@@H](O)[C@@H]3N=C(N)N)O[C@H](C)[C@@]2(O)C=O)O[C@@H](CO)[C@@H](O)[C@H]1O in this test?
0

Fill in: this test's call for COc1ccc2c(c1)CC[C@H]1[C@@H]2CC[C@]2(C)[C@@H](NCCCCCCN3C(=O)C=CC3=O)CC[C@H]12 is ___
0

The reported measurements were obtained from PubChem BioAssay (NCATS).
